# Test system: MALME-3M melanoma
# protocolNotes: NCI-60 one-dose screen, 48 h (100 = growth as untreated, 0 = no growth, -100 = all killed)
# conditionDescription: 10 µM unless noted
This is part of a sample that, as a whole, favours compounds with a hit. Of some 83,000 tested, about 20% had one in any assay.
Please provide measured growth for the entries that follow.
Respond numerically; units are % and should not be typed.

[Q] Bench note: what growth did COc1c(C2CC(=O)Nc3c2c(C)nn3-c2nc3ccccc3[nH]2)cc2c(c1OC)OCO2 (stereo not given) show?
[A] 86.5

[Q] Bench note: what growth did CCCCC1CCCC12NC(=O)NC2=O (stereo not given) show?
[A] 100

[Q] Bench note: what growth did COc1ccc(-c2nn(C(=O)c3cc(OC)c(OC)c(OC)c3)c3cc(N)ccc23)cc1 show?
[A] 68.2

[Q] Bench note: what growth did CCc1ccc(Oc2c(-c3ccc(OCc4ccc(Cl)cc4)cc3O)n[nH]c2C(F)(F)F)cc1 show?
[A] -28.3

[Q] Bench note: what growth did COc1ccc(CN2c3ccccc3CCc3ccccc32)cc1F show?
[A] 84.3

[Q] Bench note: what growth did c1ccc2cc(C[n+]3ccn(CCCCCCCCCCCCn4cc[n+](Cc5ccc6ccccc6c5)c4)c3)ccc2c1 show?
[A] -76.7

[Q] Bench note: what growth did COc1ccc([C@H]2c3cc(OC)c(OC)cc3C=C(C=O)C2CO)cc1OC (stereo not given in full) show?
[A] 68.2

[Q] Bench note: what growth did CCCCCCN(CCCCCC)c1ccc(/C=C2/SC(=O)NC2=O)c(C)c1 show?
[A] 72.9

[Q] Bench note: what growth did N#Cc1c(Nc2cccc(Cl)c2)sc(C(=O)c2cc3cc(Cl)ccc3o2)c1N show?
[A] 101

[Q] Bench note: what growth did Cc1nc(S(=O)(=O)c2ccccc2)c(S(=O)(=O)Cc2ccc([N+](=O)[O-])cc2)o1 show?
[A] 95.2

[Q] Bench note: what growth did COc1cc(/C=C/C(=O)/C=C/c2cc(OC)c3c(c2OC)OCO3)c(OC)c2c1OCO2 show?
[A] 46.7

[Q] Bench note: what growth did CCCCCCNC(=O)Oc1ccc(/C(=C(\C)c2ccc(Cl)cc2)c2ccc(OCCN(CC)CC)cc2)cc1 show?
[A] 49.3

[Q] Bench note: what growth did Fc1cc(-c2nnc3sc(-c4ccc(Cl)cc4Cl)nn23)c(Cl)cc1Cl show?
[A] 52.3

[Q] Bench note: what growth did C=CCNc1ccc2c3c(cccc13)C(=O)N(N1C(=O)c3cccc4cccc(c34)C1=O)C2=O show?
[A] 110

[Q] Bench note: what growth did C[C@]12CC[C@@H]3c4cc(OC(F)F)c(OS(N)(=O)=O)cc4CC[C@H]3[C@@H]1CC[C@@H]2O show?
[A] 26.4

[Q] Bench note: what growth did CCCCCCCCCCCCCCCCCCOc1ccc(CC(=O)OCC[N+](C)(C)C)cc1 show?
[A] 113

[Q] Bench note: what growth did NCCCNc1nc2ccccc2c2c(=O)c3cc(F)cc(Cl)c3sc12 show?
[A] 106

[Q] Bench note: what growth did COc1ccc(C2C(C#N)=C(N)Oc3c2sc2c(C)cccc32)cc1 (stereo not given) show?
[A] 62.5

[Q] Bench note: what growth did CCOC(=O)c1cn2ncnc(Oc3ccc(NC(=O)NCCN(CC)CC)c(Cl)c3)c2c1C show?
[A] 22.3

[Q] Bench note: what growth did CCCCNC(=O)Oc1ccc(/C(=C(\C)c2ccc(Cl)cc2)c2ccc(OCCN(CC)CC)cc2)cc1 show?
[A] 65.1

[Q] Bench note: what growth did COc1cc(C(=O)c2cc(C)c3[nH]c4ccc(O)cc4c3c2C)cc(OC)c1OC show?
[A] -8.11

[Q] Bench note: what growth did Nc1nc2ccccc2c2c(=O)c3cc(F)ccc3sc12 show?
[A] 96.5

[Q] Bench note: what growth did CCCCCCn1c(-c2ccc(C(=O)O/N=C(\N)c3ccc(OC)cc3)cc2)nc(-c2ccccc2)c1-c1ccccc1 show?
[A] -18.2

[Q] Bench note: what growth did COc1nc2ccccc2cc1-c1nc2c(cnn2-c2ccccc2)c(=O)[nH]1 show?
[A] 75.6

[Q] Bench note: what growth did CNc1nc2c(s1)C(c1cc(F)ccc1F)CC(=O)N2 (stereo not given) show?
[A] 70.2

[Q] Bench note: what growth did O=c1c2cc(F)ccc2sc2c(N3CCNCC3)nc3ccc(F)cc3c12 show?
[A] 82.6

[Q] Bench note: what growth did CC([C@H]1CCC2C3CCC4C(=O)C(NC=O)=CC[C@]4(C)C3CC[C@@]21C)N(C)C (stereo not given in full) show?
[A] -2.06

[Q] Bench note: what growth did CCOC(=O)c1cn2ncnc(Oc3ccc(NC(=O)NCCN(C)C)c(Cl)c3)c2c1C show?
[A] 58.9

[Q] Bench note: what growth did CN1CCN(CC(=O)N2c3cccc4cccc(c34)N(C(=O)CN3CCN(C)CC3)C2c2cn(-c3ccccc3)nc2-c2cccc([N+](=O)[O-])c2)CC1 show?
[A] -86.7

[Q] Bench note: what growth did Cc1ccc(C(=O)NN2C(=O)CSC2c2cccc([N+](=O)[O-])c2)cn1 (stereo not given) show?
[A] 111

[Q] Bench note: what growth did COc1cc(C)c(Cc2cnc(N)nc2N)cc1OC show?
[A] 99.3

[Q] Bench note: what growth did Cc1c(C(=O)NCCCc2ccccc2)sc2ncc(-c3ccc(Br)cc3)n12 show?
[A] 101

[Q] Bench note: what growth did C(=N/Nc1ncnc2nc[nH]c12)/c1ccccn1 show?
[A] 46.4

[Q] Bench note: what growth did c1cc(-c2nnc(SSc3ncnc4nc[nH]c34)o2)ccn1 show?
[A] 103

[Q] Bench note: what growth did COc1cc(CCC[P+](c2ccccc2)(c2ccccc2)c2ccccc2)c(OC)c2c1OCO2 show?
[A] 3.07

[Q] Bench note: what growth did Cc1ccc(C(C)C)cc1C(=O)C[n+]1ccccc1 show?
[A] 95.9

[Q] Bench note: what growth did CCOC(=O)C1=C(N)Oc2c(sc3c(C)cccc23)C1c1ccc(F)cc1 (stereo not given) show?
[A] 52.7

[Q] Bench note: what growth did N#Cc1cccc(NC(=O)c2cc(-c3ccc(F)cc3F)ccc2O)c1 show?
[A] -25.1

[Q] Bench note: what growth did Nc1ccc(Sc2ccc([N+](=O)[O-])c3nonc23)cc1 show?
[A] 57

[Q] Bench note: what growth did COc1ccc(C2CC(c3ccc(Nc4nc(Nc5ccc(F)cc5)nc(Nc5ccc(Cl)cc5)n4)cc3)=NN2C(C)=O)cc1 (stereo not given) show?
[A] 88.1
